- Test system: Target C
- procedure text: HiBiT protein abundance assay, Target C (K562 HiBiT knock-in cells)
- Assay type: cell-based, human
- condition notes: 24 hours treatment
quantity kind: IC50

>>> df
                                   molecule  quantity_kind  observed_value
0  Cc1cn2nc(-n3cc4sc(C5CCNCC5)cc4n3)cc(C)c2n1 [Compound 101]           IC50        < 0.1 µM
1  Cn1cc2cc(-c3cc4cn([C@@H]5CCNC[C@H]5O)nc4s3)cc(F)c2n1 [Compound 273]           IC50         > 10 µM
2  COc1c(-c2nc3cn(C4CCNCC4)nc3s2)cc2cn(C)nc2c1C [Compound 1103]           IC50      1 to 10 µM
3  Cc1cn2nc(-n3cc4sc(C5CCNCC5)cc4n3)cc2c(C)n1 [Compound 171]           IC50     0.1 to 1 µM
4  Cn1cc2cc(-n3cc4sc(C5CCNCC5)cc4n3)cc(F)c2n1 [Compound 105]           IC50      1 to 10 µM
5  Cn1cc2cc(-n3cc4sc(C5CCNCC5)cc4n3)c(O)cc2n1 [Compound 178]           IC50      1 to 10 µM
6  Cn1cc2cc(-c3nc4cn(C5CCNCC5)nc4s3)c(O)c(F)c2n1 [Compound 1107]           IC50     0.1 to 1 µM
7  Cc1cn2nc(-n3cc4sc(N5CCC(NC(C)(C)C)C5)cc4n3)cc(C)c2n1 (stereo not drawn) [Compound 189]           IC50         > 10 µM
8  Cn1cc2cc(-c3cc4cn(C5CNC5)nc4s3)cc(F)c2n1 [Compound 184]           IC50         > 10 µM

----------
- Tested on: MYB mRNA
- procedure text: Splicing RT-qPCR assay, MYB canonical (CJ) and alternative (AJ) junction mRNA
- Format: cell-based
- condition notes: Homo sapiens; Table 7; IC50 = 50% response in CJ mRNA decrease; RT-qPCR, A673 or K562 cells, 24 hours treatment; read-out: MYB CJ
Counter-ions that a name gives are not always drawn.
quantity kind: IC50

>>> df
                                    compound  assayed_target  quantity_kind    observed_value
 0  Cc1cn2nc(-c3nc4sc(C5CCOCC5)cc4s3)cc(C)c2n1 [Compound 196]        MYB mRNA           IC50  1000 to 10000 nM
 1  Cn1cc2cc(-c3cc4cn(C5CCOCC5)nc4s3)cc(F)c2n1 [Compound 161]        MYB mRNA           IC50        > 10000 nM
 2  Cn1cc2cc(-c3nc4sc(N5CCNCC5)c(Cl)c4s3)cc(F)c2n1 [Compound 147]        MYB mRNA           IC50    100 to 1000 nM
 3  Cc1cn2nc(-n3cc4cc(C5CCNCC5)sc4n3)cc(C)c2n1 [Compound 110]        MYB mRNA           IC50  1000 to 10000 nM
 4  Cc1cc(-c2cc3cn(C4CCNCC4)nc3s2)cc2cn(C)nc12 [Compound 225]        MYB mRNA           IC50    100 to 1000 nM
 5  Cc1cn2nc(-n3cc4sc(N5CCC(NC(C)(C)C)C5)cc4n3)cc(C)c2n1 (stereo not drawn) [Compound 189]        MYB mRNA           IC50        > 10000 nM
 6  Cc1cc(-c2nc3sc(C4CCNCC4)cc3s2)cc2cn(C)nc12 [Compound 238]        MYB mRNA           IC50    100 to 1000 nM
 7  Cc1cn2cc(-c3nc4sc(C5CCNCC5)cc4s3)cc(C)c2n1 [Compound 140, hydrochloride]        MYB mRNA           IC50    100 to 1000 nM
 8  COc1c(-c2cc3cn(C4CCNCC4)nc3s2)cc(F)c2nn(C)cc12 [Compound 224]        MYB mRNA           IC50        > 10000 nM
 9  Cc1cn2cc(-n3cc4cc(C5CCNCC5)sc4n3)cc(Cl)c2n1 [Compound 165]        MYB mRNA           IC50    100 to 1000 nM
10  C[C@@H]1C[C@@H](c2cc3sc(-c4cc(F)c5nn(C)cc5c4)nc3s2)CCN1 (stereo in doubt) [Compound 263]        MYB mRNA           IC50    100 to 1000 nM
11  CCNC1CCN(c2cc3sc(-c4cc(F)c5nn(C)cc5c4)nc3s2)CC1 [Compound 137]        MYB mRNA           IC50    100 to 1000 nM
12  Cc1cn2cc(-c3nc4sc(C5CCNCC5)cc4s3)ccc2n1 [Compound 271]        MYB mRNA           IC50    100 to 1000 nM
13  Cn1cc2cc(-c3nc4cn(C5CCNCC5)nc4s3)c(O)cc2n1 [Compound 1110]        MYB mRNA           IC50  1000 to 10000 nM
14  Cn1cc2cc(-c3nc4sc(C5CCNCC5)cc4s3)cc(F)c2n1 [Compound 106]        MYB mRNA           IC50          < 100 nM
15  Cn1cc2cc(-c3nc4cn(C5CCNCC5)nc4s3)c(O)c(F)c2n1 [Compound 1107]        MYB mRNA           IC50    100 to 1000 nM
16  Cc1cn2cc(-c3cc4cn(C5CCNCC5)nc4s3)ncc2n1 [Compound 223]        MYB mRNA           IC50  1000 to 10000 nM
17  Cc1cn2cc(-c3nc4sc(C5CCNCC5)cc4s3)cc(F)c2n1 [Compound 130, hydrochloride]        MYB mRNA           IC50          < 100 nM
